Assayed target: ScBzz1-D1
Run description: SPOT peptide array binding signal intensity (averaged, normalized) (arbitrary units (background-subtracted, floor 0; scale differs between SH3 domains)); higher = stronger binding of the SH3 domain to the peptide
Property measured: SPOT peptide array binding signal intensity

Study these solved cases before continuing.
> print(dat)
            binder  reported.measurement
1  SSTPTTPERPKRKSG                    15
2  LKQRFFLMFPKSIIW                    42

// sample "APPPPPRRATPEKKP" , its SPOT peptide array binding signal intensity was 14

// sample "MFLISPPASPPPEFD" , its SPOT peptide array binding signal intensity was 7

// sample "EAEEAAPQLPSRSSA" , its SPOT peptide array binding signal intensity was 9

// sample "TPEIPPPLPPKIMVH" , its SPOT peptide array binding signal intensity was ≤ 0

// sample "TTAPALPSLPPPPLL" , its SPOT peptide array binding signal intensity was 190

// sample "PLRRTVMSLPGNHDI" , its SPOT peptide array binding signal intensity was 4.75

// sample "TPTSGPPLLPPRNTM" , its SPOT peptide array binding signal intensity was 3

// sample "SAPDIPPRSPNRNAH" , its SPOT peptide array binding signal intensity was ≤ 0

// sample "RRSKSLPTTPGIRSG" , its SPOT peptide array binding signal intensity was 25

// sample "RSKRLFPVRPMATAH" , its SPOT peptide array binding signal intensity was 1.5
